Square brackets hold non-standard residues; d marks the D form. Peptide text beside a SMILES is read from it. Tyr(3-tBu) = CC(C)(C)c1cc(C[CH](N)C(=O)O)ccc1O; Phg = N[CH](C(=O)O)c1ccccc1
Consider molecules characterized by their pIC50 with motilin receptor (Oryctolagus cuniculus, UniProt G1T803).
Sequence (G1T803 1-400): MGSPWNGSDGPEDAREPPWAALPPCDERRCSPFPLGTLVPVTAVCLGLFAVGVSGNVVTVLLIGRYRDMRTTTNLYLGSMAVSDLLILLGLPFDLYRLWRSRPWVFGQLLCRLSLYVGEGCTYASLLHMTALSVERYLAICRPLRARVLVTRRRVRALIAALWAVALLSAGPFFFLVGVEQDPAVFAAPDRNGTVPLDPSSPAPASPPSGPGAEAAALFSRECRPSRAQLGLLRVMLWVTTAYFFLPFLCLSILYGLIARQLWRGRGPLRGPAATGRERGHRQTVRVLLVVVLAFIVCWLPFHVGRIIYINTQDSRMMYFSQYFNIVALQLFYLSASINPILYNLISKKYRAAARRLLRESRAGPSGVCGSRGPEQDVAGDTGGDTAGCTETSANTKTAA
When answering, recall that pIC50 equals minus log10 of the concentration in mol/L, and write that number alone.

MOLECULE	pIC50
CN(C(=O)C(N)Cc1ccccc1)C(C(=O)NC(Cc1ccc(O)c(C(C)(C)C)c1)C(N)=O)c1ccccc1 [Example 18B, Phe-N-Me-D-Phg-Tyr(3-tBu)-NH2]	8.43
CC(Cc1ccc(O)c(C(C)(C)C)c1)NC(=O)C(C(C)C)N(C)C(=O)[C@@H](N)Cc1ccccc1 (stereo partly shown)	8.72
CC(C)(C)c1cc(CC(NC(=O)C(NC(=O)C(N)Cc2ccccc2)c2ccccc2)C(N)=O)ccc1O (stereo not drawn) [Example 5, Phe-Phg-Tyr(3-tBu)-NH2] (H-Phe-[Phg]-[Tyr(3-tBu)]-NH2; configuration not given here)	7.92

Given item CC(C)[C@@H](C(=O)N(C)[C@@H](Cc1ccc(O)c(C(C)(C)C)c1)C(N)=O)N(C)C(=O)[C@@H](N)Cc1ccccc1 [Example 119, Phe-N-Me-Val-N-Me-Tyr(3-tBu)-NH2] (HELM PEPTIDE1{F.[meV].[CN([C@@H](Cc1ccc(O)c(C(C)(C)C)c1)C(=O)[*:2])[*:1]].[am]}$$$$V2.0) , the value recorded as its pIC50 is 8.37

This collection of values is drawn from patent US6255285A.
